test system: Mus musculus; experiment: Antiinflammatory activity in ICR mouse assessed as inhibition of xylene-induced ear edema at 0.15 mmol/kg, po administered 30 mins before xylene challenge measured after 2 hrs relative to control; assay type: functional
Non-standard residues stand in square brackets, D forms with d. Residues, ends and D or L forms follow the SMILES beside them. Tpi = O=C(O)[C@@H]1Cc2c([nH]c3ccccc23)CN1
Exercise: for every item that follows, state its recorded inhibition in vivo at 150 µmol/kg.
Field format: number, assumed %, no unit text.

Problem: Using the record for O=C(O)C[C@H](NC(=O)[C@@H]1Cc2c([nH]c3ccccc23)CN1)C(=O)N[C@@H](Cc1ccccc1)C(=O)N[C@@H](Cc1c[nH]c2ccccc12)C(=O)O (H-[Tpi]DFW-OH) , report its inhibition in vivo at 150 µmol/kg.
Solution: 40

Problem: Using the record for O=C(O)[C@H](Cc1c[nH]c2ccccc12)NC(=O)[C@H](Cc1ccccc1)NC(=O)[C@H](Cc1cnc[nH]1)NC(=O)[C@@H]1Cc2c([nH]c3ccccc23)CN1 (H-[Tpi]HFW-OH) , report its inhibition in vivo at 150 µmol/kg.
Solution: 57.6

Problem: Using the record for O=C(O)[C@H](Cc1c[nH]c2ccccc12)NC(=O)[C@H](Cc1ccccc1)NC(=O)[C@H](Cc1c[nH]c2ccccc12)NC(=O)[C@@H]1Cc2c([nH]c3ccccc23)CN1 (H-[Tpi]WFW-OH) , report its inhibition in vivo at 150 µmol/kg.
Solution: 51.5

* * *

system: Mus musculus; assay: Antiinflammatory activity in ICR mouse assessed as inhibition of xylene-induced ear edema at 0.15 mmol/kg, po administered 30 mins before xylene challenge measured after 2 hrs relative to control; assay type: functional
Non-standard residues stand in square brackets, D forms with d. Residues, ends and D or L forms follow the SMILES beside them. Tpi = O=C(O)[C@@H]1Cc2c([nH]c3ccccc23)CN1
VALUE KIND: inhibition in vivo at 150 µmol/kg (%)
Field format: number, assumed %, no unit text.

Problem: Using the record for NC(=O)C[C@H](NC(=O)[C@@H]1Cc2c([nH]c3ccccc23)CN1)C(=O)N[C@@H](Cc1ccccc1)C(=O)N[C@@H](Cc1c[nH]c2ccccc12)C(=O)O (H-[Tpi]NFW-OH) , report its inhibition in vivo at 150 µmol/kg.
Solution: 55.8

Problem: Using the record for N=C(N)NCCC[C@H](NC(=O)[C@@H]1Cc2c([nH]c3ccccc23)CN1)C(=O)N[C@@H](Cc1ccccc1)C(=O)N[C@@H](Cc1c[nH]c2ccccc12)C(=O)O (H-[Tpi]RFW-OH) , report its inhibition in vivo at 150 µmol/kg.
Solution: 57

Problem: Using the record for NC(=O)CC[C@H](NC(=O)[C@@H]1Cc2c([nH]c3ccccc23)CN1)C(=O)N[C@@H](Cc1ccccc1)C(=O)N[C@@H](Cc1c[nH]c2ccccc12)C(=O)O (H-[Tpi]QFW-OH) , report its inhibition in vivo at 150 µmol/kg.
Solution: 42.4

Problem: Using the record for CC[C@H](C)[C@H](NC(=O)[C@@H]1Cc2c([nH]c3ccccc23)CN1)C(=O)N[C@@H](Cc1ccccc1)C(=O)N[C@@H](Cc1c[nH]c2ccccc12)C(=O)O (H-[Tpi]IFW-OH) , report its inhibition in vivo at 150 µmol/kg.
Solution: 56.4

Problem: Using the record for C[C@@H](O)[C@H](NC(=O)[C@@H]1Cc2c([nH]c3ccccc23)CN1)C(=O)N[C@@H](Cc1ccccc1)C(=O)N[C@@H](Cc1c[nH]c2ccccc12)C(=O)O (H-[Tpi]TFW-OH) , report its inhibition in vivo at 150 µmol/kg.
Solution: 50.6

* * *

system: Mus musculus; assay: Antiinflammatory activity in ICR mouse assessed as inhibition of xylene-induced ear edema at 0.15 mmol/kg, po administered 30 mins before xylene challenge measured after 2 hrs relative to control; assay type: functional
Non-standard residues stand in square brackets, D forms with d. Residues, ends and D or L forms follow the SMILES beside them. Tpi = O=C(O)[C@@H]1Cc2c([nH]c3ccccc23)CN1
VALUE KIND: inhibition in vivo at 150 µmol/kg
The reply should read as a number followed by its unit.

Problem: Requested read-out inhibition in vivo at 150 µmol/kg, target or system Mus musculus, entry O=C(O)[C@H](Cc1c[nH]c2ccccc12)NC(=O)[C@H](Cc1ccccc1)NC(=O)[C@H](CO)NC(=O)[C@@H]1Cc2c([nH]c3ccccc23)CN1 (H-[Tpi]SFW-OH)
Solution: 45.7%

Problem: Requested read-out inhibition in vivo at 150 µmol/kg, target or system Mus musculus, entry CC(C)[C@H](NC(=O)[C@@H]1Cc2c([nH]c3ccccc23)CN1)C(=O)N[C@@H](Cc1ccccc1)C(=O)N[C@@H](Cc1c[nH]c2ccccc12)C(=O)O (H-[Tpi]VFW-OH)
Solution: 43.6%

Problem: Requested read-out inhibition in vivo at 150 µmol/kg, target or system Mus musculus, entry C[C@H](NC(=O)[C@@H]1Cc2c([nH]c3ccccc23)CN1)C(=O)N[C@@H](Cc1ccccc1)C(=O)N[C@@H](Cc1c[nH]c2ccccc12)C(=O)O (H-[Tpi]AFW-OH)
Solution: 52.7%

* * *

Exercise: for every item that follows, state its recorded Activity.
tested on: Mus musculus; experiment: Analgesic activity in ICR mouse assessed as increase in pain threshold at 0.15 mmol/kg, po after 180 mins by tail flick method (reference value: 8.75 +/- 9.73 %); format: functional
Non-standard residues stand in square brackets, D forms with d. Residues, ends and D or L forms follow the SMILES beside them. Tpi = O=C(O)[C@@H]1Cc2c([nH]c3ccccc23)CN1
Field format: number, assumed %, no unit text.

Problem: Using the record for CC(C)C[C@H](N)C(=O)N[C@@H](Cc1ccccc1)C(=O)N[C@@H](Cc1c[nH]c2ccccc12)C(=O)O (H-Leu-Phe-Trp-OH) , report its Activity.
Solution: 7.98

Problem: Using the record for O=C(O)[C@H](Cc1c[nH]c2ccccc12)NC(=O)[C@H](Cc1ccccc1)NC(=O)[C@H](Cc1ccccc1)NC(=O)[C@@H]1Cc2c([nH]c3ccccc23)CN1 (H-[Tpi]FFW-OH) , report its Activity.
Solution: 15.32

Problem: Using the record for O=C(O)[C@H](Cc1c[nH]c2ccccc12)NC(=O)[C@H](Cc1ccccc1)NC(=O)[C@H](Cc1cnc[nH]1)NC(=O)[C@@H]1Cc2c([nH]c3ccccc23)CN1 (H-[Tpi]HFW-OH) , report its Activity.
Solution: 13.29

Problem: Using the record for CC(=O)Oc1ccccc1C(=O)O [ASPIRIN] , report its Activity.
Solution: 21.72

Problem: Using the record for O=C(O)[C@H](Cc1c[nH]c2ccccc12)NC(=O)[C@H](Cc1ccccc1)NC(=O)[C@@H]1CCCN1C(=O)[C@@H]1Cc2c([nH]c3ccccc23)CN1 (H-[Tpi]PFW-OH) , report its Activity.
Solution: 15.68

Problem: Using the record for CC(C)C[C@H](NC(=O)[C@@H]1Cc2c([nH]c3ccccc23)CN1)C(=O)N[C@@H](Cc1ccccc1)C(=O)N[C@@H](Cc1c[nH]c2ccccc12)C(=O)O (H-[Tpi]LFW-OH) , report its Activity.
Solution: 18.86

Problem: Using the record for NCCCC[C@H](NC(=O)[C@@H]1Cc2c([nH]c3ccccc23)CN1)C(=O)N[C@@H](Cc1ccccc1)C(=O)N[C@@H](Cc1c[nH]c2ccccc12)C(=O)O (H-[Tpi]KFW-OH) , report its Activity.
Solution: 25.69

Problem: Using the record for NC(=O)CC[C@H](NC(=O)[C@@H]1Cc2c([nH]c3ccccc23)CN1)C(=O)N[C@@H](Cc1ccccc1)C(=O)N[C@@H](Cc1c[nH]c2ccccc12)C(=O)O (H-[Tpi]QFW-OH) , report its Activity.
Solution: 22.45

Problem: Using the record for O=C(O)C[C@H](NC(=O)[C@@H]1Cc2c([nH]c3ccccc23)CN1)C(=O)N[C@@H](Cc1ccccc1)C(=O)N[C@@H](Cc1c[nH]c2ccccc12)C(=O)O (H-[Tpi]DFW-OH) , report its Activity.
Solution: 18.77

Problem: Using the record for C[C@H](NC(=O)[C@@H]1Cc2c([nH]c3ccccc23)CN1)C(=O)N[C@@H](Cc1ccccc1)C(=O)N[C@@H](Cc1c[nH]c2ccccc12)C(=O)O (H-[Tpi]AFW-OH) , report its Activity.
Solution: 19.22

Problem: Using the record for C[C@@H](O)[C@H](NC(=O)[C@@H]1Cc2c([nH]c3ccccc23)CN1)C(=O)N[C@@H](Cc1ccccc1)C(=O)N[C@@H](Cc1c[nH]c2ccccc12)C(=O)O (H-[Tpi]TFW-OH) , report its Activity.
Solution: 19.25

* * *

test system: Mus musculus; assay: Analgesic activity in ICR mouse assessed as increase in pain threshold at 0.15 mmol/kg, po after 180 mins by tail flick method (reference value: 8.75 +/- 9.73 %); format: functional
Non-standard residues stand in square brackets, D forms with d. Residues, ends and D or L forms follow the SMILES beside them. Tpi = O=C(O)[C@@H]1Cc2c([nH]c3ccccc23)CN1
# note: exactly 20% is not below, so it is not met; use met for Activity strictly under it

Problem: Criterion: Activity strictly below 20%. Is it met by N=C(N)NCCC[C@H](NC(=O)[C@@H]1Cc2c([nH]c3ccccc23)CN1)C(=O)N[C@@H](Cc1ccccc1)C(=O)N[C@@H](Cc1c[nH]c2ccccc12)C(=O)O (H-[Tpi]RFW-OH) ?
Solution: not met

Problem: Criterion: Activity strictly below 20%. Is it met by O=C(O)[C@H](Cc1c[nH]c2ccccc12)NC(=O)[C@H](Cc1ccccc1)NC(=O)[C@H](Cc1ccc(O)cc1)NC(=O)[C@@H]1Cc2c([nH]c3ccccc23)CN1 (H-[Tpi]YFW-OH) ?
Solution: not met

Problem: Criterion: Activity strictly below 20%. Is it met by CC[C@H](C)[C@H](NC(=O)[C@@H]1Cc2c([nH]c3ccccc23)CN1)C(=O)N[C@@H](Cc1ccccc1)C(=O)N[C@@H](Cc1c[nH]c2ccccc12)C(=O)O (H-[Tpi]IFW-OH) ?
Solution: met

Problem: Criterion: Activity strictly below 20%. Is it met by O=C(CNC(=O)[C@@H]1Cc2c([nH]c3ccccc23)CN1)N[C@@H](Cc1ccccc1)C(=O)N[C@@H](Cc1c[nH]c2ccccc12)C(=O)O (H-[Tpi]GFW-OH) ?
Solution: met

Values from ChEMBL document CHEMBL1781989
